Recorded values, source patent US12286443B2.

Test target: JAK3 (Homo sapiens, UniProt P52333)
Construct: purchased Invitrogen PV4080
Sequence (P52333 1-1124): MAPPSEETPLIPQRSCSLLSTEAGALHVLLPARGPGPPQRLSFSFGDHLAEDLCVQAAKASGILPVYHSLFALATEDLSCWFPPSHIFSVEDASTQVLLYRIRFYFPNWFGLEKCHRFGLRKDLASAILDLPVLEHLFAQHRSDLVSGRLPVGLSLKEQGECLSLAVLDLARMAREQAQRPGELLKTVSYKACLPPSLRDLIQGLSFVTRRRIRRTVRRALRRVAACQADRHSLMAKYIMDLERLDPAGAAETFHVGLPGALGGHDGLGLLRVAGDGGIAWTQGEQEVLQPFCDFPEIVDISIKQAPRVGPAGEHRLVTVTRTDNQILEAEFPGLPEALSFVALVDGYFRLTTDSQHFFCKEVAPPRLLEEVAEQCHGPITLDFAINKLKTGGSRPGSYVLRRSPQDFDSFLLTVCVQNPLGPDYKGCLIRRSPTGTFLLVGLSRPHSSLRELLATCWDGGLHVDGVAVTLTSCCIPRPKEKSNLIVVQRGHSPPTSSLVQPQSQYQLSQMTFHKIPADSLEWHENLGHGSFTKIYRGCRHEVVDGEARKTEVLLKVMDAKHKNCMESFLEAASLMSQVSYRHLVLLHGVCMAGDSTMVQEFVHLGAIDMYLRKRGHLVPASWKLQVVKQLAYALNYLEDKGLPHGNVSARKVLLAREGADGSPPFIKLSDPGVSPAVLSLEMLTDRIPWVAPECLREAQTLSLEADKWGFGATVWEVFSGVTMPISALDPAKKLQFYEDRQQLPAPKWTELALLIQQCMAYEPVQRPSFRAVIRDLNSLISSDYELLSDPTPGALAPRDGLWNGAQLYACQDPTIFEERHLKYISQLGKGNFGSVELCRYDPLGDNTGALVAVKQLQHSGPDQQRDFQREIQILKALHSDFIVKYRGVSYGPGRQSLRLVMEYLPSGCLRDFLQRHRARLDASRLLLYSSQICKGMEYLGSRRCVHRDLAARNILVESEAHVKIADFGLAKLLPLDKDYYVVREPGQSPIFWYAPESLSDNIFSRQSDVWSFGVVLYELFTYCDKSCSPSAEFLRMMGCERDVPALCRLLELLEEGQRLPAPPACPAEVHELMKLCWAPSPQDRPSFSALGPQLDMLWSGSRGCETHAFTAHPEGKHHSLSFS
Test name: Inhibition of JAK3 kinase, LANCE Ultra TR-FRET assay
Assay type: biochemical
Measurement setup: 2x ATP 8 μM, 15 min pre-incubation, 90 min reaction, 23° C.
Description: Exemplary compounds were assayed to determine potency in inhibiting activity of JAK1-3 and TYK2 kinases by determining IC50 values. […] Prior to the assay, enzyme, peptide substrate and serially diluted test compounds were pre-incubated together in assay buffer (5 μL) for 15 minutes (peptide substrate concentration: 50 nM; JAK enzyme concentrations: 2 nM JAK1; […]; 80 μM JAK3 and 4 nM TYK2). […] The plate is analyzed by Perkin Elmer Envision on TR-FRET mode. […]

# Compound, Test target, IC50
data = [
    ("Cn1nc(C(=O)NCCC(F)(F)F)c2c1CCN(c1ncnc3[nH]ccc13)C2 [Compound 107]", "JAK3 (Homo sapiens, UniProt P52333)", "< 100 nM"),
    ("O=C(NCCN1CCOCC1)c1noc2c1CN(c1ncnc3[nH]ccc13)CC2 [Compound 162]", "JAK3 (Homo sapiens, UniProt P52333)", "500 to 2000 nM"),
    ("CCCS(=O)(=O)NC(=O)[C@H]1C[C@H](NC(=O)c2nn(C)c3c2CN(c2ncnc4[nH]ccc24)CC3)C1 [Compound 127]", "JAK3 (Homo sapiens, UniProt P52333)", "100 to 500 nM"),
]
